meta.source: ChEMBL document CHEMBL5120938

- SYSTEM: Bromodomain-containing protein 4 (Homo sapiens)
- RUN DESCRIPTION: Inhibition of N-terminal His6-tagged recombinant human BRD4 (44 to 168 residues) expressed in Escherichia coli BL21 (DE3) incubated for 60 mins by TR-FRET assay
OBSERVABLE: IC50 (nM)
Number in nM, nothing else.

Give the value of IC50 reported for the following: [2H]C([2H])([2H])c1nnn(C)c1-c1cnc2c3ccc(C(C)(C)O)c(Cl)c3n([C@H](c3ccccc3)C3CCOCC3)c2c1
1.1

Give the value of IC50 reported for the following: Cc1nnn(C)c1-c1cnc2c3ccc(C(C)C)cc3n([C@H](c3ccccc3)C3CCOCC3)c2c1
4

Give the value of IC50 reported for the following: [2H]C([2H])([2H])c1nnn(C)c1-c1cnc2c3ccc(C(C)(C)O)cc3n([C@H](c3ccccc3)C3CCOCC3)c2c1
1.2

Give the value of IC50 reported for the following: Cc1nnn(C)c1-c1cnc2c3ccc(S(C)(=O)=O)cc3n([C@H](c3ccccc3)C3CCOCC3)c2c1
0.9

Give the value of IC50 reported for the following: COC(C)(C)c1ccc2c3ncc(-c4c(C)nnn4C)cc3n([C@H](c3ccccc3)C3CCOCC3)c2c1
1.4

Give the value of IC50 reported for the following: [2H]C([2H])([2H])c1nnn(C)c1-c1cnc2c3c(OC)cc(C(C)(C)O)cc3n([C@H](c3ccccc3)C3CCOCC3)c2c1
1

Give the value of IC50 reported for the following: COc1cc2c3ncc(-c4c(C)nnn4C)cc3n([C@H](c3ccccc3)C3CCOCC3)c2cc1C(C)(C)O
0.8

Give the value of IC50 reported for the following: [2H]C([2H])([2H])c1nnn(C)c1-c1cnc2c3ccc(S(C)(=O)=O)cc3n([C@H](c3ccccc3)C3CCOCC3)c2c1
1.7

====

- RUN DESCRIPTION: Metabolic stability in alamethicin treated Sprague-Dawley rat liver microsomes assessed as half life pretreated for 5 mins followed by NADPH addition and measured up to 45 mins by LC-MS/MS analysis
- Assay type: ADME, Microsome
- APPLIED CONDITIONS: time < 50 min
Please go through the items and note down their half-life.
Number in min, nothing else.

Give the value of half-life reported for the following: [2H]C([2H])([2H])c1nnn(C)c1-c1cnc2c3cc(F)c(C(C)(C)O)cc3n([C@H](c3ccccc3)C3CCOCC3)c2c1
46

Give the value of half-life reported for the following: Cc1nnn(C)c1-c1cnc2c3ccc(C(C)(C)O)cc3n([C@H](c3ccccc3)C3CCOCC3)c2c1
36

Give the value of half-life reported for the following: [2H]C([2H])([2H])c1nnn(C)c1-c1cnc2c3ccc(C(C)(C)O)c(F)c3n([C@H](c3ccccc3)C3CCOCC3)c2c1
38

Give the value of half-life reported for the following: [2H]C([2H])([2H])c1nnn(C)c1-c1cnc2c3ccc(C(C)(C)O)c(Cl)c3n([C@H](c3ccccc3)C3CCOCC3)c2c1
35

Give the value of half-life reported for the following: COc1cc2c3ncc(-c4c(C)nnn4C)cc3n([C@H](c3ccccc3)C3CCOCC3)c2cc1C(C)(C)O
13

Give the value of half-life reported for the following: [2H]C([2H])([2H])c1nnn(C)c1-c1cnc2c3cc(Cl)c(C(C)(C)O)cc3n([C@H](c3ccccc3)C3CCOCC3)c2c1
39

Give the value of half-life reported for the following: COC(C)(C)c1ccc2c3ncc(-c4c(C)nnn4C)cc3n([C@H](c3ccccc3)C3CCOCC3)c2c1
18

Give the value of half-life reported for the following: Cc1nnn(C)c1-c1cnc2c3ccc(S(C)(=O)=O)cc3n([C@H](c3ccccc3)C3CCOCC3)c2c1
44

Give the value of half-life reported for the following: [2H]C([2H])([2H])c1nnn(C)c1-c1cnc2c3ccc(C(C)(C)O)cc3n([C@H](c3ccccc3)C3CCOCC3)c2c1
43

Give the value of half-life reported for the following: [2H]C([2H])([2H])c1nnn(C)c1-c1cnc2c3ccc(S(C)(=O)=O)cc3n([C@H](c3ccccc3)C3CCOCC3)c2c1
47

Give the value of half-life reported for the following: Cc1nnn(C)c1-c1cnc2c3ccc(C(C)(O)C(F)(F)F)c(F)c3n([C@H](c3ccccc3)C3CCOCC3)c2c1 (stereo partly drawn)
49

Give the value of half-life reported for the following: [2H]C([2H])([2H])c1nnn(C)c1-c1cnc2c3c(OC)cc(C(C)(C)O)cc3n([C@H](c3ccccc3)C3CCOCC3)c2c1
35

Give the value of half-life reported for the following: [2H]C([2H])([2H])c1nnn(C)c1-c1cnc2c3c(F)cc(C(C)(C)O)cc3n([C@H](c3ccccc3)C3CCOCC3)c2c1
62
